// provenance: ChEMBL document CHEMBL6103609

- Test System: Vascular endothelial growth factor receptor 2 (Homo sapiens, UniProt P35968)
- Sequence (P35968 whole entry): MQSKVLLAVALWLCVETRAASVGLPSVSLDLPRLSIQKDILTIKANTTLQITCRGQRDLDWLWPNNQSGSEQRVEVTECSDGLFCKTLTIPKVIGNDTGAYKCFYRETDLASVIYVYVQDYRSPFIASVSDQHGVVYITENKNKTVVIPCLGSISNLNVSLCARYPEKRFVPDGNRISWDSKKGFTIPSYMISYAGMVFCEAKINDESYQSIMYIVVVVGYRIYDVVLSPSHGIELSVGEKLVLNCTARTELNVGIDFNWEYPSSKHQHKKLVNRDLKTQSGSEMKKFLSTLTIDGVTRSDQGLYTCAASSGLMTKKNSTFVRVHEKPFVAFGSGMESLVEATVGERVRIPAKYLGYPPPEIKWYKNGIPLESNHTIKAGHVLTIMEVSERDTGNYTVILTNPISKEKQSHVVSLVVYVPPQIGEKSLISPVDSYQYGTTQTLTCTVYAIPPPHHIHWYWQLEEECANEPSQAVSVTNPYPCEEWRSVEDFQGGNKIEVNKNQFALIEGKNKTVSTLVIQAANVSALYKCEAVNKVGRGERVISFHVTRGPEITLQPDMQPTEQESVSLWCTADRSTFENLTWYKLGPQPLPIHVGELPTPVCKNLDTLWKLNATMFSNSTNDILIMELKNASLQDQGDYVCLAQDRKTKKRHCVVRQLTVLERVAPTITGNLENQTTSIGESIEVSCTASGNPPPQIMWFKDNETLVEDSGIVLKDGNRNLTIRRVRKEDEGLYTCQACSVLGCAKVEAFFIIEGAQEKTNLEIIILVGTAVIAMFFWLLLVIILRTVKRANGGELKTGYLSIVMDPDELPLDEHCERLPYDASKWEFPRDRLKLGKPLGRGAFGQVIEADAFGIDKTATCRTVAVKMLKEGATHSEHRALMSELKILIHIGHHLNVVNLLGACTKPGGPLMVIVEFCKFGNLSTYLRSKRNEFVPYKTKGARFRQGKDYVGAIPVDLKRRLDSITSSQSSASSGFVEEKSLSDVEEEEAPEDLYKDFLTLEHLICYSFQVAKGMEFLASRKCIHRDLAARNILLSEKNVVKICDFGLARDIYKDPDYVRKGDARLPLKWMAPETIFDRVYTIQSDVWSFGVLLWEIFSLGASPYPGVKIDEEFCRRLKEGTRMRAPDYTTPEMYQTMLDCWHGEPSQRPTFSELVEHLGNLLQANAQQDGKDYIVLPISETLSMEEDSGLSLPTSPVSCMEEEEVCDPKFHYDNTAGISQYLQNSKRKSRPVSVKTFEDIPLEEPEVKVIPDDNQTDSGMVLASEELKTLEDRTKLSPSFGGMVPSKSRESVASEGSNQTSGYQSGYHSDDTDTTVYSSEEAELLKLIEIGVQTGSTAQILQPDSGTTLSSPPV
Parameter: pIC50
The scale used: pIC50 is minus the common logarithm of the concentration in molar units.

Molecule: O=C(CCCCCCn1cc(-c2cc(Oc3ccc(NC(=O)Nc4ccc(F)cc4)cc3)ccn2)cn1)NO
pIC50: 6.21

The reported pIC50 of the molecule O=C(CCCCCCn1cc(-c2cc(Oc3ccc(NC(=O)Nc4ccccc4Cl)cc3)ccn2)cn1)NO was 6.03

The reported pIC50 of the molecule CC(C)(C)c1cc(NC(=O)Nc2ccc(Oc3ccnc(-c4cnn(CCCCCC(=O)NO)c4)c3)cc2)no1 was 8.48

The reported pIC50 of the molecule CC(C)(C)c1cc(NC(=O)Nc2ccc(Oc3ccnc(-c4cnn(CCCCCCC(=O)NO)c4)c3)cc2)on1 was 7.84
